B1: TCEB3B (parent)
chain: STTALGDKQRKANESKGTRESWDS

Variants of: B1
Assay: protein stability index of a GFP-peptide fusion (GPS, HEK-293T) (PSI 1-6); higher = more stable;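 note: lentivirally expressed fusions sorted by FACS into six bins by GFP to DsRed ratio, PSI derived from sequencing read proportions per bin multiplied by bin number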
Conditions: c terminus: a fixed tail appended
result_type: protein stability index
Output: the number by itself.

A selection of reference data follows.
STVALGDKQRKANESKGTRESWDS    4.36
DTTALGDKQRKANESKGTRESWDS    4.16
STTALGLKQRKANESKGTRESWDS    2.88

Field protein stability index (entry "STTALGDKQRKANESKGTRESWYS" ) reads 4.07
